- System: NCI-H23
- Measurement Notes: NCI tumour cell line growth inhibition, 48 h
Active and inactive are the calls of the source. Cut-off read from the data, not from the text of the source: active = GI50 up to about 1.1 µM and inactive = higher.
Measure Name: GI50

Molecule	GI50
Cc1cc(NS(=O)(=O)c2ccc(Nc3c4ccccc4nc4ccc(C(=O)Nc5ccc(S(=O)(=O)N=C(N)N)cc5)cc34)cc2)no1	> 100 µM (inactive)
Nc1nc(Cl)cc(NCC2(CO)CCC(CCc3ccccc3)C2)n1 (stereo not drawn)	2.88 µM (inactive)
COc1ccc(OC)c(C23CCCC(C2)N(C)CC3)c1 (stereo not drawn)	32.1 µM (inactive)
O=C[C@@H](CO)O[C@H](C=O)n1cnc2c(=O)nc[nH]c21	243 µM (inactive)
Cc1cnoc1/N=C1\C=C(O)C(=O)c2ccccc21	4.71 µM (inactive)
C=C(COCO)C(C)=O	17.5 µM (inactive)
COC(=O)c1c(OC(C)=O)ccc2c1c1c(n2C)C(=O)c2ccccc2C1=O	19.7 µM (inactive)

We next turn to a different molecule, shown below.
Given the molecule Cc1cccc(C)c1NC(=O)CCC(=O)CC(=O)C(C)C , what is its reported GI50?
> 100 µM (inactive)

---

- Test system: IGROV-1
- Measurement Notes: NCI tumour cell line growth inhibition, 48 h
Active and inactive are the calls of the source. Rule as the data show it: active = GI50 up to about 1.1 µM and inactive = higher.
Measure Name: GI50

Reference set (4 entries):
Compound	GI50
COc1ccc2[nH]c3c4c(c5cc(C(C)(C)C)ccc5c3c2c1)C(=O)N(c1ccccc1)C4=O	> 100 µM (inactive)
CCCCCCCCCCC1OC([C@@H](O)CC[C@H](O)C2CC[C@@H](CCCCCCCC(O)CC3=CC(C)OC3=O)O2)CCC1O (some centres undefined)	2.61 µM (inactive)
O=C1NC2CCCCC2N=C1CC(=O)c1ccc(Br)cc1 (centres undefined)	5.22 µM (inactive)
COc1ccc2c(c1)OCCc1cn[nH]c1-2	23.4 µM (inactive)

Given the compound COc1cc(/C=c2\sc3n(c2=O)C(c2ccc(Cl)cc2)C2=C(CCCC2C)N=3)cc(OC)c1OC (centres undefined) , what is its reported GI50?
> 100 µM (inactive)

Again, but for COc1cc(/C=N/NC(=O)c2c(Cl)c(Cl)c(Cl)c(Cl)c2-c2nc3cc(C(=O)c4ccccc4)ccc3[nH]2)ccc1O
47.6 µM (inactive)

Again, but for CC12CP(=O)(c3ccccc3)CC1C2(Cl)Cl (centres undefined)
> 100 µM (inactive)

---

- Test system: NCI/ADR-RES
- Measurement Notes: NCI tumour cell line growth inhibition, 48 h
Active and inactive are the calls of the source. Cut-off read from the data, not from the text of the source: active = GI50 up to about 1.1 µM and inactive = higher.
Measure Name: GI50

Reference set (3 entries):
Molecule	Target	Result
O=C(/C=C\Nc1ccccc1O)C(Cl)(Cl)Cl	NCI/ADR-RES	99.3 µM (inactive)
C=C(C)C1CC=C(C)C2(C1)OCC(C)(C)C(C)O2 (configuration not stated)	NCI/ADR-RES	17.9 µM (inactive)
Cc1ccc(CNNC(=O)c2cc[n+]([BH2-]C#N)cc2)cc1	NCI/ADR-RES	> 100 µM (inactive)

Give NCI/ADR-RES GI50 for N#CCC(=O)N/N=C\C(O)C(O)C(O)C(O)CO (configuration not stated)
> 100 µM (inactive)

Again, but for CC(=O)OC1[C@H](n2ccnc2)C[C@H]2[C@@H]3CC=C4CC(N5CCCC5)CC[C@]4(C)[C@H]3CC[C@]12C (some centres not stated)
> 100 µM (inactive)

Again, but for CSc1nc(Br)nc2ncn(C3CC(Oc4ccc(C)cc4)C(COc4ccc(C)cc4)O3)c12 (configuration not stated)
> 100 µM (inactive)

Again, but for Cn1c(=O)oc2cc(C(=O)CN3CCN(Cc4ccc5c(c4)OCO5)CC3)c(Cl)cc21
> 100 µM (inactive)

---

- Tested on: EKVX
- Measurement Notes: NCI tumour cell line growth inhibition, 48 h
Active and inactive are the calls of the source. No stated cut-off is given here; in the data, active = GI50 up to about 1.1 µM and inactive = higher.
Choose one outcome from this list and give only that: True (active), False (inactive)

Examples from the recorded data:
Compound	Target	Answer Label
O=C1NC2OC(C(O)CO)C(O)C2O1 (centres undefined)	EKVX	False
COC(=O)C1=C(C(=O)OC)SC2(S1)C1=C(CCCC1)SC(C(=O)OC)=C2C(=O)OC	EKVX	False
CCOC(=O)c1ccc(-c2cc(C)no2)[nH]1	EKVX	False
COC(=O)[C@@H]1CN(C(=O)c2ccccc2)C(=O)N1	EKVX	False
COc1cc(/C=C2\CCC/C(=C\c3ccc(OC(=O)CCCCC4CCSS4)c(OC)c3)C2=O)ccc1OC(=O)CCCCC1CCSS1 (centres undefined)	EKVX	False

For CCOP(=O)(OCC)/C(C#N)=C/c1cnc[nH]1 , which call appears in the assay record?
False

Again, but for O=C1Nc2cccc3cc(NCC(O)CCl)cc1c23 (centres undefined)
False

---

- Tested on: SK-MEL-28
- Measurement Notes: NCI tumour cell line growth inhibition, 48 h
Calls of active or inactive are those of the source. Rule as the data show it: active = GI50 up to about 1.1 µM and inactive = higher.
Listing of entries alongside the reported GI50.

Compound	GI50
CCO/C=N/C1=C(C#N)C(c2ccc(OC)c(OC)c2)c2c(-c3ccccc3)nn(-c3ccccc3)c2O1 (centres undefined)	15 µM (inactive)
O=P(O)(O)c1ccc(-c2ccc(I)cc2)cc1	> 100 µM (inactive)
C[N+]12CCCCC1C(COc1cccc3cccnc13)CCC2 (centres undefined)	> 100 µM (inactive)

We next turn to a different compound, shown below.
Given the compound Cc1ccc(S(=O)(=O)N2CCc3cc(O)c([N+](=O)[O-])cc32)cc1 , what is its reported GI50?
> 100 µM (inactive)

---

- Test system: CCRF-CEM
- Measurement Notes: NCI tumour cell line growth inhibition, 48 h
Activity calls are given as the source filed them. Cut-off read from the data, not from the text of the source: active = GI50 up to about 1.1 µM and inactive = higher.
Choose one outcome from this list and give only that: active, inactive

Compound	Target	Answer Label
O=c1[nH]c(=O)n(C2OC(CO)C(O)C2O)c2c1CCCC2 (stereo not drawn)	CCRF-CEM	inactive

Turning now to a further record.
For Cc1nc2ccc(NCCN(C)C)c3c(=O)c4cc(O)ccc4n1c23 , which call appears in the assay record?
active

---

- Tested on: OVCAR-4
- Measurement Notes: NCI tumour cell line growth inhibition, 48 h
Calls of active or inactive are those of the source. Rule as the data show it: active = GI50 up to about 1.1 µM and inactive = higher.
Measure Name: GI50

Reference set (4 entries):
Compound	GI50
COc1cc(OCc2ccc3nc(-c4ccccc4)c(N)nc3c2)cc(OC)c1OC	13.8 µM (inactive)
COc1cc(NS(C)(=O)=O)ccc1Nc1c2ccccc2nc2c1[nH]c1ccc(NC3OC(CO)C(O)C(O)C3O)cc12 (stereo unspecified)	1.36 µM (inactive)
CSc1nc(Br)nc2ncn(C3CC(Oc4ccc(C)cc4)C(COc4ccc(C)cc4)O3)c12 (stereo unspecified)	> 100 µM (inactive)
CCn1c(=O)c2c3ccc(O)cc3[nH]c2c2ccc(O)cc21	> 100 µM (inactive)

Given the compound Oc1cccc2ccc(SSc3ccc4cccc(O)c4n3)nc12 , what is its reported GI50?
16.1 µM (inactive)

Again, but for O=C(Nn1c(-c2ccccc2)nc2ccccc2c1=O)c1ccccn1
> 100 µM (inactive)

Again, but for COc1cc(/C=C2\C[C@H]3[C@@H]4CCc5cc(OCCN6CCCC6)ccc5[C@H]4CC[C@]3(C)C2=O)cc(OC)c1OC
1.6 µM (inactive)

Again, but for c1ccc(-c2cc3[nH]c4ccccc4[nH]c-3cc(-c3ccccc3)nn2)cc1
56.2 µM (inactive)

Again, but for CN(C)c1nc2n(CCO)ccnc-2c(=O)n1
> 100 µM (inactive)

Again, but for COC(=O)[C@@H]1C[C@@H](O)CN1C(=O)c1ccc([N+](=O)[O-])cc1[N+](=O)[O-]
> 100 µM (inactive)

Again, but for CC1(C)[C@@H](Cn2cnc3c(Cl)nc(N)nc32)CC[C@@]1(C)CO
> 100 µM (inactive)

Again, but for COc1ccccc1/N=N/c1c(-c2ccccc2)nn(C(=O)CC(=O)Nc2cccc(C)c2)c1-c1ccccc1
28.6 µM (inactive)

Again, but for Cc1cccc(CNc2[nH]cnc3nncc2-3)c1
87.7 µM (inactive)

Again, but for COc1ccc2c(c1)OCCc1cn[nH]c1-2
48.6 µM (inactive)

Again, but for CCCC(=O)OCC1OC(n2cc(F)c(=O)[nH]c2=O)CC1O (stereo unspecified)
> 10 µM (inactive)

---

- Test system: NCI-H23
- Measurement Notes: NCI tumour cell line growth inhibition, 48 h
Active and inactive are the calls of the source. Rule as the data show it: active = GI50 up to about 1.1 µM and inactive = higher.
Measure Name: GI50

Molecule	Measure Name	Result
CCOc1ccc(NC(=O)/C(=N\NC(C)(C)C)C2C(=O)Nc3ccccc3[S+]2[O-])cc1 (configuration not stated)	GI50	> 100 µM (inactive)
CCC1(CC)C(=O)NC(=S)N=C1N	GI50	> 100 µM (inactive)

Given the molecule O=c1ccn([C@@H]2C[C@@H]2CO)c(=O)[nH]1 , what is its reported GI50?
> 100 µM (inactive)

Again, but for Cc1ccccc1NC(=O)/C=N/O
> 100 µM (inactive)

Again, but for Cc1ccc(N/C(Sc2ccccc2)=C(/C(Cl)=C(Cl)Cl)[N+](=O)[O-])c(C)c1
22.9 µM (inactive)

Again, but for CCOP(=O)(OCC)/C(C#N)=C/c1cnc[nH]1
> 100 µM (inactive)

Again, but for O=c1[nH]c(=O)n(C2OC(CO)C(O)C2O)c2c1CCCC2 (configuration not stated)
> 100 µM (inactive)
